measurement description: In vivo pharmacokinetics in rats, gavage (PO)
condition description: male, SD, rat, plasma, 4 mg/kg
Items are presented alongside their recorded half-life.
Numbers only here, please. The scale is h.

> print(dat)
                                   molecule  observation.type  unit.symbol  measurement
1  CN1Cc2cnc3ccc(-c4ccc(N)nc4)nc3c2N(c2cccc(C(F)(F)F)c2)C1=O         half-life            h         5.33

Query block: Kindly indicate its recorded half-life. Item: CC(=O)Nc1ccc(-c2ccc3ncc4c(c3n2)N(c2cccc(C(F)(F)F)c2)C(=O)N(C)C4)cn1
Result block: 1.7

Query block: Kindly indicate its recorded half-life. Item: Cn1c(=O)n(-c2ccc(C(C)(C)C#N)cc2)c2c3cc(-c4cnc5ccccc5c4)ccc3ncc21 [BEZ-235, reference compound]
Result block: 4.08

Query block: Kindly indicate its recorded half-life. Item: CN1Cc2cnc3ccc(-c4cnc(N)nc4)nc3c2N(c2cccc(C(F)(F)F)c2)C1=O
Result block: 1.39
